Where do these numbers come from? They come from ChEMBL document CHEMBL1156362.

In this section we review reported selectivity ratio values for a set of compounds.
experiment: Selectivity index, ratio of IC50 for african green monkey (Cercopithecus aethiops) Vero cells to IC50 for chloroquine-resistant Plasmodium falciparum W2
Type: toxicity, cell-based
settings: read-out: Ratio IC50

Please review the entries below; each comes with its answer.
C[C@H]1CC[C@H]2[C@H](C1)c1c(O)cc(-c3cc4ccccc4o3)cc1OC2(C)C: > 40
C[C@@H]1CC[C@H]2[C@@H](C)C(=O)O[C@@H]3O[C@@]4(C)CC[C@@H]1[C@]32OO4: > 1080

For C[C@H]1CC[C@H]2[C@H](C1)c1c(O)cc(/C=C/c3ccccc3)cc1OC2(C)C the compound record lists selectivity ratio as > 7.9
